testTarget: Spleen Tyrosine Kinase (SYK) aa 360-635 (Homo sapiens, UniProt P43405)
Construct: truncated construct of Spleen Tyrosine Kinase aa 360-635; made in house
protocolDescription: Determination of IC50 of Spleen Tyrosine Kinase (SYK) inhibition, 33P kinase assay
Format: biochemical
testConditions: recombinant human SYK360-635, 20 μM ATP; read-out: IC50 (μM) SYK Assay
readoutName: IC50 (µM)

>  <smilesData>
Cc1cc(Nc2nn(C(C)C)c(=O)c3cc(CS(C)(=O)=O)ccc23)n[nH]1

>  <testTarget>
Spleen Tyrosine Kinase (SYK) aa 360-635 (Homo sapiens, UniProt P43405)

>  <unitString>
µM

>  <IC50>
0.894

$$$$
>  <smilesData>
Cc1cc(Nc2nn(-c3ccc(C(C)(C)C)cc3)c(=O)c3ccccc23)n[nH]1

>  <testTarget>
Spleen Tyrosine Kinase (SYK) aa 360-635 (Homo sapiens, UniProt P43405)

>  <unitString>
µM

>  <IC50>
0.552

$$$$
>  <smilesData>
Cc1cc(Nc2nn(Cc3csc(C)n3)c(=O)c3ccccc23)n[nH]1

>  <testTarget>
Spleen Tyrosine Kinase (SYK) aa 360-635 (Homo sapiens, UniProt P43405)

>  <unitString>
µM

>  <IC50>
87.9

$$$$
>  <smilesData>
Cc1cc(Nc2nn(-c3ccc(Cl)cc3)c(=O)c3ccccc23)n[nH]1

>  <testTarget>
Spleen Tyrosine Kinase (SYK) aa 360-635 (Homo sapiens, UniProt P43405)

>  <unitString>
µM

>  <IC50>
1.19

$$$$

P = Cc1cc(Nc2nn(CC(F)(F)F)c(=O)c3ccccc23)n[nH]1
Q = Cc1cc(Nc2nn(C(C)C)c(=O)c3ccc(N4CCOCC4)cc23)n[nH]1
Ask: Form: Entry with minimum IC50 (choose one): P / Q Label of pick, please.
Reply: P

1 = Cc1cc(Nc2nn(Cc3cc(F)ccc3F)c(=O)c3ccccc23)n[nH]1
2 = CC(=O)Nc1ccc2c(Nc3cc(C)[nH]n3)nn(C(C)C)c(=O)c2c1
3 = COc1ccc2c(Nc3cc(C)[nH]n3)nn(C(C)C)c(=O)c2c1
4 = COCc1ccc2c(Nc3cc(C)[nH]n3)nn(C(C)C)c(=O)c2c1
Ask: Let's sort these by IC50, smallest first. Go ahead? To answer, write out the labels according to the requested order.
Reply: 3, 4, 2, 1
(3: 0.793 µM, 4: 1.25 µM, 2: 5.62 µM, 1: 22.9 µM)

a = Cc1cc(Nc2nn(Cc3cccc(C(=O)O)c3)c(=O)c3ccccc23)n[nH]1
b = Cc1cc(Nc2nn(C(C)C)c(=O)c3cc(N(C)Cc4ccncc4)ccc23)n[nH]1
c = Cc1cc(Nc2nn(C(C)C)c(=O)c3ccc(N(C)C)cc23)n[nH]1
Ask: Output the entries ranked by IC50 from maximum down to minimum. To answer, write out the labels according to the requested order.
Reply: c, a, b
(c: 37.4 µM, a: 24.9 µM, b: 0.392 µM)

a = COc1ccc(Cn2nc(Nc3cc(C)[nH]n3)c3ccccc3c2=O)cc1
b = Cc1cc(Nc2nn(C(C)C)c(=O)c3cc(OCCCS(=O)(=O)N(C)C)ccc23)n[nH]1
Ask: Form: Entry with minimum IC50 (choose one): a / b Label of pick, please.
Reply: b

a = Cc1cc(Nc2nn(Cc3cccnc3)c(=O)c3ccccc23)[nH]n1
b = CSc1ccc2c(Nc3cc(C)[nH]n3)nn(C(C)C)c(=O)c2c1
Ask: Form: Entry with minimum IC50 (choose one): a / b Label of pick, please.
Reply: b

----------
testTarget: Spleen Tyrosine Kinase (SYK) aa 360-635 (Homo sapiens)
Construct: truncated construct of Spleen Tyrosine Kinase aa 360-635; made in house
protocolDescription: Determination of IC50 of Spleen Tyrosine Kinase (SYK) inhibition, 33P kinase assay
Type: biochemical
testConditions: recombinant human SYK360-635, 20 μM ATP; read-out: IC50 (μM) SYK Assay
readoutName: IC50 (µM)

Example cases with answers are listed next.
>  <smilesData>
Cc1cc(Nc2nn(C(C)C)c(=O)c3cc(OCCN(C)C)ccc23)n[nH]1

>  <IC50 (µM)>
1.86

$$$$
>  <smilesData>
Cc1cc(Nc2nn(C(C)C)c(=O)c3ccc(F)cc23)n[nH]1

>  <IC50 (µM)>
87.5

$$$$
>  <smilesData>
Cc1cc(Nc2nn(C(C)C)c(=O)c3cc(F)ccc23)n[nH]1

>  <IC50 (µM)>
7.61

$$$$
>  <smilesData>
Cc1cc(Nc2nn(CC(=O)c3ccccc3)c(=O)c3ccccc23)n[nH]1

>  <IC50 (µM)>
7.67

$$$$
>  <smilesData>
Cc1cc(Nc2nn(C(C)C)c(=O)c3cc(CO)ccc23)[nH]n1

>  <IC50 (µM)>
0.666

$$$$
>  <smilesData>
Cc1cc(Nc2nn(C(C)C)c(=O)c3cc(O)ccc23)n[nH]1

>  <IC50 (µM)>
2.52

$$$$
>  <smilesData>
Cc1cc(Nc2nn(C(C)C)c(=O)c3ccc(CO)cc23)n[nH]1

>  <IC50 (µM)>
56.9

$$$$

a = Cc1cc(Nc2nn(Cc3ccccn3)c(=O)c3ccccc23)[nH]n1
b = Cc1cc(Nc2nn(-c3ccc(C(F)(F)F)cc3)c(=O)c3ccccc23)[nH]n1
c = Cc1cc(Nc2nn(C(C)C)c(=O)c3cc(C(=O)OCC4CC4)ccc23)n[nH]1
d = Cc1cc(Nc2nn(C(C)C)c(=O)c3cc(C(=O)NC(C)C)ccc23)n[nH]1
e = Cc1cc(Nc2nn(C(C)C)c(=O)c3cc(S(C)(=O)=O)ccc23)n[nH]1
Ask: Output the entries ranked by IC50 from maximum down to minimum. To answer, write out the labels according to the requested order.
Reply: a, c, e, d, b
(a: 78.1 µM, c: 9.99 µM, e: 4.29 µM, d: 2.16 µM, b: 0.525 µM)

----------
testTarget: Bruton's Tyrosine Kinase (Btk) (Homo sapiens)
Construct: 5-10 nM Btk enzyme (His-tagged, full-length); His tag
protocolDescription: Determination of IC50 of Bruton's Tyrosine Kinase (Btk) inhibition, 33P filtration assay
Type: biochemical
testConditions: His-tagged full-length Btk, 100 μM ATP
readoutName: IC50 (µM)

>  <smilesData>
Cc1cc(Nc2nn(C(C)C)c(=O)c3cc(C(=O)OCC4CC4)ccc23)n[nH]1

>  <IC50 (µM)>
67.7

$$$$
>  <smilesData>
Cc1cc(Nc2nn(C(C)C)c(=O)c3cc(OCCCS(=O)(=O)N(C)C)ccc23)n[nH]1

>  <IC50 (µM)>
0.86

$$$$
>  <smilesData>
Cc1cc(Nc2nn(C(C)C)c(=O)c3cc(CS(C)(=O)=O)ccc23)n[nH]1

>  <IC50 (µM)>
0.44

$$$$
>  <smilesData>
COc1ccc(-n2nc(Nc3cc(C)[nH]n3)c3ccccc3c2=O)cc1

>  <IC50 (µM)>
5.87

$$$$
>  <smilesData>
Cc1cc(Nc2nn(C)c(=O)c3ccccc23)n[nH]1

>  <IC50 (µM)>
70.5

$$$$
>  <smilesData>
Cc1cc(Nc2nn(C(C)C)c(=O)c3ccc(N(C)C)cc23)n[nH]1

>  <IC50 (µM)>
14.6

$$$$

1 = Cc1cc(Nc2nn(CC(=O)c3ccccc3)c(=O)c3ccccc23)n[nH]1
2 = Cc1cc(Nc2nn(C(C)C)c(=O)c3cc(C(=O)NC(C)C)ccc23)n[nH]1
Ask: Response body: label of entry with the larger IC50; valid values 1 , 2 . Label of pick, please.
Reply: 1

----------
testTarget: Bruton's Tyrosine Kinase (Btk) (Homo sapiens, UniProt Q06187)
Construct: 5-10 nM Btk enzyme (His-tagged, full-length); His tag
Sequence (Q06187 whole entry): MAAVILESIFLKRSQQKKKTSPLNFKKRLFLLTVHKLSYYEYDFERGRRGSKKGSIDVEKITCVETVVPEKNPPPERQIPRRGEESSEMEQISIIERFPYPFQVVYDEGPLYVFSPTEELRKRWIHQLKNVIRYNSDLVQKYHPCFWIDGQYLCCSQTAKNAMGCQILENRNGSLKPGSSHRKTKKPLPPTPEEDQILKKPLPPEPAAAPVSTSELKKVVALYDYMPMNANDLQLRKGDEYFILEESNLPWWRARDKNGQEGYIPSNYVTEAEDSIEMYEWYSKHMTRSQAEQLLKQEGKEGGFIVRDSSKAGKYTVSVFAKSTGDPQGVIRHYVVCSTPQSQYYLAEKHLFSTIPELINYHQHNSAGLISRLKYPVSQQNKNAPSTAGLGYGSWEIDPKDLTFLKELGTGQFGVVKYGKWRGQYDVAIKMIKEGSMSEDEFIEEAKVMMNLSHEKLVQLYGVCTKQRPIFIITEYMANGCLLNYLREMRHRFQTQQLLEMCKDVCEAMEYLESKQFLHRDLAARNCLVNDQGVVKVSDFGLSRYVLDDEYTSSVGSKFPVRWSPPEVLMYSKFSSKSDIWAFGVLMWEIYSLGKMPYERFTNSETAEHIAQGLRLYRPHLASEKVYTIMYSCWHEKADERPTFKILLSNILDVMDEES
protocolDescription: Determination of IC50 of Bruton's Tyrosine Kinase (Btk) inhibition, 33P filtration assay
Assay type: biochemical
testConditions: His-tagged full-length Btk, 100 μM ATP
Procedure: Determination of IC50 of Bruton's Tyrosine Kinase (Btk) Inhibition The assay is a capture of radioactive ^33P phosphorylated product through filtration. […] All bound, radiolabeled products are detected by scintillation counter. […] IC50 determinations are calculated from 10 data points per compound utilizing data produced from a standard 96-well plate assay template. […] Background was counted in the absence of peptide substrate. Total activity was determined in the presence of peptide substrate. […]
readoutName: IC50 (µM)

Example cases with answers are listed next.
>  <smilesData>
Cc1cc(Nc2nn(C(C)C)c(=O)c3cc(OCCN(C)C)ccc23)n[nH]1

>  <testTarget>
Bruton's Tyrosine Kinase (Btk) (Homo sapiens, UniProt Q06187)

>  <unitString>
µM

>  <IC50>
0.186

$$$$
>  <smilesData>
Cc1cc(Nc2nn(-c3ccc(F)cc3)c(=O)c3ccccc23)n[nH]1

>  <testTarget>
Bruton's Tyrosine Kinase (Btk) (Homo sapiens, UniProt Q06187)

>  <unitString>
µM

>  <IC50>
6.3

$$$$
>  <smilesData>
Cc1cc(Nc2nn(CC(F)(F)F)c(=O)c3ccccc23)n[nH]1

>  <testTarget>
Bruton's Tyrosine Kinase (Btk) (Homo sapiens, UniProt Q06187)

>  <unitString>
µM

>  <IC50>
8.22

$$$$
>  <smilesData>
Cc1cc(Nc2nn(Cc3csc(C)n3)c(=O)c3ccccc23)n[nH]1

>  <testTarget>
Bruton's Tyrosine Kinase (Btk) (Homo sapiens, UniProt Q06187)

>  <unitString>
µM

>  <IC50>
25.2

$$$$

A = Cc1cc(Nc2nn(C(C)C)c(=O)c3cc(CO)ccc23)[nH]n1
B = Cc1cc(Nc2nn(C(C)C)c(=O)c3cc(N4CCOCC4)ccc23)n[nH]1
Ask: Response body: label of entry with the larger IC50; valid values A , B . Label of pick, please.
Reply: A

I = Cc1cc(Nc2nn(C(C)C)c(=O)c3cc(N(C)C)ccc23)n[nH]1
II = Cc1ccc(-n2nc(Nc3cc[nH]n3)c3ccccc3c2=O)cc1
III = Cc1cc(Nc2nn(Cc3cc(F)ccc3F)c(=O)c3ccccc23)n[nH]1
Ask: Output the entries ranked by IC50 from maximum down to minimum. To answer, write out the labels according to the requested order.
Reply: III, II, I
